# reported IC50; entries follow
# Tested on: A549
# Method: Cytotoxicity against human A549 cells assessed as reduction in cell viability after 48 hrs by MTT assay
# Format: functional, cell-based
# Setup Conditions: A549, 48 h

>  <Chemical Smiles>
COC(=O)CCC[C@@H]1[C@H]2CCCN3CCC[C@H](CN1Cc1c[nH]c4ccc(Br)cc14)[C@@H]23

>  <IC50>
39.9 µM

$$$$

Param readout = IC50; param system = A549; param query = OCCCC[C@@H]1[C@H]2CCCN3CCC[C@H](CN1Cc1c[nH]c4ccccc14)[C@@H]23 ; response: value
> 50 µM

Notebook: pull reported IC50 for A549, entry COC(=O)CCC[C@@H]1[C@H]2CCCN3CCC[C@H](CN1Cc1cn(Cc4ccccc4)c4ccccc14)[C@@H]23
43.4 µM

Query for A549: what IC50 does the record show for COC(=O)CCC[C@@H]1[C@H]2CCCN3CCC[C@H](CN1Cc1c[nH]c4ccc([N+](=O)[O-])cc14)[C@@H]23 ?
> 50 µM

// fetch A549 IC50 for CC[C@@]1(O)C(=O)OCc2c1cc1n(c2=O)Cc2cc3ccccc3nc2-1
5.5 µM
